# Protocol text: NFAT Signaling Pathway (AID 444);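 also: carbachol stimulus at about its EC50 of 1 µM final; % is scaled to controls: 0 for no effect and ±100 for the full control effect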
# Condition summary: Jurkat NFAT-bla M1, carbachol, beta-lactamase ratio, 5 h; at 17.2 µM (top of the series) unless noted
Results filed as inconclusive are left out.
Assay metric: activity change, negative = inhibition (%)
Field format: number, assumed %, no unit text.

The measured activity change, negative = inhibition associated with C[C@@]12C=CC(=O)C=C1CC[C@@H]1[C@@H]2[C@H](O)C[C@]2(C)[C@@H]1CC[C@]2(O)C(=O)CO reads -7.95

The measured activity change, negative = inhibition associated with C#C[C@@]1(O)CC[C@@H]2[C@@H]3CCC4=CC(=O)CC[C@@H]4[C@H]3CC[C@]21C reads -7.42

The measured activity change, negative = inhibition associated with CC(C)n1c(/C=C\[C@@H](O)C[C@@H](O)CC(=O)O)c(-c2ccc(F)cc2)c2ccccc21 reads 6.57

The measured activity change, negative = inhibition associated with CCN[C@@H]1C[C@H](N)[C@H](O[C@H]2OC(CN)=CC[C@H]2N)[C@@H](O)[C@H]1O[C@H]1OC[C@@](C)(O)[C@@H](NC)[C@@H]1O reads -14.4

----------
# Test system: AS120
# Protocol text: qHTS profiling for inhibitors of Plasmodium falciparum proliferation (AID 504749); also: nearly all actives have a fitted effect of over 60% in size
# Condition summary: P. falciparum in erythrocytes, SYBR Green DNA, 72 h; series mostly up to 12.8 µM
Records with an inconclusive call do not appear. Calls of active or inactive are those of the source. Calls come from the whole dose curve; as a rule, active = well fitted inhibition curve with a large enough effect; inconclusive = small, poorly fitted or top-dose-only effect; inactive = flat fitted curve, though single readings scatter.
A correct response names exactly one class from TRUE (active), FALSE (inactive)

Req: What classification did C/C1=C2N=C(/C=C3N=C(/C(C)=C4\[N-]C(C)(C5N=C1C(C)(CCC(=O)NCC(C)OP(=O)([O-])O[C@H]1C(O)C(n6cnc7cc(C)c(C)cc76)O[C@@H]1CO)C5CC(N)=O)C(C)(CC(N)=O)C4CCC(N)=O)C(C)(CC(N)=O)C\3CCC(N)=O)C(C)(C)C/2CCC(N)=O.[CH2-]C1OC(n2cnc3c(N)ncnc32)C(O)C1O.[Co] (some centres not stated) end up with in this test?
Resp: FALSE

Req: What classification did COc1ccc(C[C@@](C)(N)C(=O)O)cc1OC end up with in this test?
Resp: FALSE

Req: What classification did C[C@]12CCC(=O)C=C1CCC1C2C(=O)C[C@]2(C)C1CC[C@]2(O)C(=O)CO (some centres not stated) end up with in this test?
Resp: FALSE

Req: What classification did CCC(C)C(=O)OC1CC(O)C=C2C=CC(C)C(CCC(O)CC(O)CC(=O)O)C21 (configuration not stated) end up with in this test?
Resp: FALSE

Req: What classification did COC1C=CO[C@@]2(C)Oc3c(C)c(O)c4c(O)c(c5c(nc6cc(C)ccn65)c4c3C2=O)NC(=O)/C(C)=C\C=CC(C)C(O)[C@@H](C)C(O)C(C)[C@@H](OC(C)=O)C1C (some centres not stated) end up with in this test?
Resp: TRUE

Req: What classification did CC(=O)OCC(=O)[C@@]1(O)[C@H](C)C[C@@H]2[C@H]3CCC4=CC(=O)C=C[C@]4(C)[C@]3(F)[C@@H](O)C[C@@]21C end up with in this test?
Resp: FALSE

Req: What classification did C=Cc1c(C)c2cc3nc(cc4[nH]c(cc5nc(cc1[nH]2)C(C)=C5CCC(=O)O)c(CCC(=O)OC)c4C)[C@@]1(C)C3=CC=C(C(=O)OC)[C@H]1C(=O)OC (tested in a mixture with another compound) end up with in this test?
Resp: TRUE

----------
# Test system: DIV30
# Protocol text: qHTS profiling for inhibitors of Plasmodium falciparum proliferation (AID 504749); also: nearly all actives have a fitted effect of over 60% in size
# Condition summary: P. falciparum in erythrocytes, SYBR Green DNA, 72 h; series mostly up to 12.8 µM
Results filed as inconclusive are left out. Activity calls are given as the source filed them. The call rests on the fitted dose curve; in most records, active means well fitted inhibition curve with a large enough effect; inconclusive means small, poorly fitted or top-dose-only effect; inactive means flat fitted curve, though single readings scatter.
A correct response names exactly one class from class 1 = active, class 0 = inactive

Req: What classification did COc1ccc(CC(N)C(=O)NC2C(CO)OC(n3cnc4c(N(C)C)ncnc43)C2O)cc1 (centres undefined) end up with in this test?
Resp: class 1

Req: What classification did NC(=O)c1ccc[n+]([C@@H]2O[C@H](COP(=O)([O-])OP(=O)(O)OC[C@H]3O[C@@H](n4cnc5c(N)ncnc54)[C@@H](O)[C@@H]3O)[C@@H](O)[C@@H]2O)c1 end up with in this test?
Resp: class 0

Req: What classification did C[C@H](C(=O)O)c1cccc(Oc2ccccc2)c1 end up with in this test?
Resp: class 0

Req: What classification did CNC1CC(N)[C@H](O)[C@@H](O[C@@H]2OC(CO)C3OC4(OC(C(N)CO)C(O)C(O)C4O)O[C@@H]3[C@H]2O)C1O (some centres undefined) end up with in this test?
Resp: class 0

----------
# Tested on: CP329
# Protocol text: qHTS profiling for inhibitors of Plasmodium falciparum proliferation (AID 504749); also: nearly all actives have a fitted effect of over 60% in size
# Condition summary: P. falciparum in erythrocytes, SYBR Green DNA, 72 h; series mostly up to 12.8 µM
Records with an inconclusive call do not appear. Activity calls are given as the source filed them. Calls follow the shape of the dose curve; as a rule, active = well fitted inhibition curve with a large enough effect; inconclusive = small, poorly fitted or top-dose-only effect; inactive = flat fitted curve, though single readings scatter. Bridge positions count the residues as written; N and C are the ends. Square brackets hold non-standard residues; d marks the D form. Peptide text beside a SMILES is read from it. * marks the point of attachment. Ileψ(thiazoline)Cys = CC[C@H](C)[C@H](N)C1=N[C@H](C(=O)*)CS1; d(aIle) = CC[C@H](C)[C@@H](N)C(=O)O; dOrn = NCCC[C@@H](N)C(=O)O
Assay metric: outcome

CCC(C)(C)C(=O)O[C@@H]1C[C@H](C)C=C2C=C[C@H](C)[C@@H](CC[C@H]3C[C@@H](O)CC(=O)O3)[C@H]21: inactive
CC[C@H](C)[C@H](N)C1=N[C@H](C(=O)N[C@@H](CC(C)C)C(=O)N[C@@H](CCC(=O)O)C(=O)N[C@@H](C(=O)N[C@H]2CCCCNC(=O)[C@@H](CC(N)=O)NC(=O)[C@@H](CC(=O)O)NC(=O)[C@@H](Cc3cnc[nH]3)NC(=O)[C@@H](Cc3ccccc3)NC(=O)[C@@H]([C@@H](C)CC)NC(=O)[C@@H](CCCN)NC2=O)[C@@H](C)CC)CS1 ({Ileψ(thiazoline)Cys}-LE[d(aIle)]K[dOrn][d(aIle)][dF][dH][dD][dN]; lactam 4-C): inactive

----------
# System under test: Cytochrome P450 3A4 (Homo sapiens)
# Protocol text: qHTS Assay for Inhibitors and Substrates of Cytochrome P450 3A4 (AID 884); also: nearly all actives have a fitted effect of over 50% in size
# Condition summary: recombinant CYP3A4, Luciferin-PPXE luminescence; series mostly up to 57.1 µM
Results filed as inconclusive are left out. Calls of active or inactive are those of the source. The call rests on the fitted dose curve; in most records, active means well fitted inhibition curve with a large enough effect; inconclusive means small, poorly fitted or top-dose-only effect; inactive means no such curve, though single readings can be large or run the other way.
A correct response names exactly one class from class 1 = active, class 0 = inactive

Req: What classification did Nc1nc2c(ncn2C2OC(CO)CC2O)c(=O)[nH]1 (centres undefined) end up with in this test?
Resp: class 0

Req: What classification did C[C@@]12CCC(O)C[C@H]1CCc1ccccc12 (some centres undefined) end up with in this test?
Resp: class 0

Req: What classification did CC(C)C1=CC2=CC[C@@H]3[C@](C)(CO)CCC[C@]3(C)C2CC1 (some centres undefined) end up with in this test?
Resp: class 0

Req: What classification did COc1cccc2c1CCC1CC(=O)CC[C@@]21C (some centres undefined) end up with in this test?
Resp: class 1

Req: What classification did CCC(C)C(=O)OC1CCC=C2C=CC(C)C(CCC3CC(O)CC(=O)O3)[C@@H]21 (some centres undefined) end up with in this test?
Resp: class 1

Req: What classification did CN(C)CCCOC1C(C(O)CO)OC2OC(C)(C)O[C@@H]21 (some centres undefined) end up with in this test?
Resp: class 0

Req: What classification did O=c1[nH]c(=O)n(C2CC(O)C(CO)O2)cc1F (centres undefined) end up with in this test?
Resp: class 0

Req: What classification did O=c1[nH]c(=O)n(C2CC(O)C(CO)O2)cc1C(F)(F)F (centres undefined) end up with in this test?
Resp: class 0

Req: What classification did CSC(N)=NCCCC(N)C(=O)O (centres undefined) end up with in this test?
Resp: class 0

Req: What classification did Cc1cc(=O)c2c(O)cc(O)c(C)c2o1 end up with in this test?
Resp: class 1

Req: What classification did CC1CCC(C(C)C)[C@H](O)C1 (some centres undefined) end up with in this test?
Resp: class 0

Req: What classification did COC1OC(CO)C(OC2OC(C(=O)O)C(OC3OC(COS(=O)(=O)O)C(OC4OC(C(=O)O)C(OC5OC(CO)C(OC6OC(C(=O)O)C(OC7OC(COS(=O)(=O)O)C(OC8OC(C(=O)O)=C[C@H](O)C8OS(=O)(=O)O)C(O)C7NC(C)=O)[C@@H](O)C6O)C(O)C5NC(C)=O)[C@@H](O)C4O)C(O)C3NC(C)=O)[C@@H](O)C2O)C(O)C1NC(C)=O (some centres undefined) end up with in this test?
Resp: class 0

Req: What classification did CC(=O)OC1CCC2(C)C3CC(=O)C4(C)C(CC5OC6(CCC(C)CO6)C(C)C54)C3CC[C@H]2C1 (some centres undefined) end up with in this test?
Resp: class 0

Req: What classification did COc1ccc(-c2oc3c(CC=C(C)C)c(O[C@H]4OC(CO)C(O)C(O)C4O)cc(O)c3c(=O)c2O[C@@H]2OC(C)C(O)C(O)C2O)cc1 (some centres undefined) end up with in this test?
Resp: class 0

Req: What classification did Nc1nc2c(nc(Cl)n2C2OC(CO)C(O)C2O)c(=O)[nH]1 (centres undefined) end up with in this test?
Resp: class 0

Req: What classification did COC1(C)CCC2OC2(C)CCC2C1CC2(C)C (centres undefined) end up with in this test?
Resp: class 1

Req: What classification did Cc1cc(=O)oc2cc(O[C@@H]3O[C@H](C(=O)O)[C@@H](O)[C@H](O)[C@H]3O)ccc12 end up with in this test?
Resp: class 0

Req: What classification did O=c1[nH]c(=O)n([C@@H]2O[C@H](CO)[C@@H](O)[C@H]2O)cc1Br end up with in this test?
Resp: class 0

Req: What classification did O=C(/C=C/c1ccc(O)c(O)c1)O[C@@H]1C[C@@](O)(C(=O)O)C[C@H](O)[C@@H]1O end up with in this test?
Resp: class 0
